Entries and their measured koff follow.
target.desc: T1, native human ApoC3 (human, UniProt P02656 21-99)
T1 construct: also called nhuApoC3; native huApoC3
assay.explanation: SPR, ApoC3 over captured IgG1, pH 5.5

[
  {
    "binder": "mAb9 (antibody, IgG1, V domains shown, Produced as full length IgG1 (kappa) in ExpiCHO-S cells; also called humanized anti-ApoC3 antibody mAb9) VH: QLVESGGGLVQPGGSLRLSCAASGFTFSTYSMRWVRQAPGKGLEWVSSIHTDAGGTAYRDSVKGRFTISRDNAKNTLYLQMNNLRAEDTAVYYCVIAGYSDWGQGTLVTVSS VL: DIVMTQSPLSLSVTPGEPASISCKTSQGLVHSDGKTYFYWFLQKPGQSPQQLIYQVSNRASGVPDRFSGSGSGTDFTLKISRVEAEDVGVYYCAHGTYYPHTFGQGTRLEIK",
    "koff, s⁻¹": 0.0467
  },
  {
    "binder": "mAb3 (antibody, IgG1, V domains shown, Produced as full length IgG1 (kappa) in ExpiCHO-S cells; also called humanized anti-ApoC3 antibody mAb3) VH: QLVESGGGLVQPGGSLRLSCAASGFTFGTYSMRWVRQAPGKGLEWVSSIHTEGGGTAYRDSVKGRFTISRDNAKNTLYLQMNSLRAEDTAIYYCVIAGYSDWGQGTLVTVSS VL: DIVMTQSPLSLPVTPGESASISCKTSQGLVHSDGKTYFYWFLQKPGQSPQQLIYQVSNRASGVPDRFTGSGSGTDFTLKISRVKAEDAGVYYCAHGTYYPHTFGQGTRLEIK",
    "koff, s⁻¹": 0.033
  }
]
